For each entry below, report its IC50 value.
Target chain: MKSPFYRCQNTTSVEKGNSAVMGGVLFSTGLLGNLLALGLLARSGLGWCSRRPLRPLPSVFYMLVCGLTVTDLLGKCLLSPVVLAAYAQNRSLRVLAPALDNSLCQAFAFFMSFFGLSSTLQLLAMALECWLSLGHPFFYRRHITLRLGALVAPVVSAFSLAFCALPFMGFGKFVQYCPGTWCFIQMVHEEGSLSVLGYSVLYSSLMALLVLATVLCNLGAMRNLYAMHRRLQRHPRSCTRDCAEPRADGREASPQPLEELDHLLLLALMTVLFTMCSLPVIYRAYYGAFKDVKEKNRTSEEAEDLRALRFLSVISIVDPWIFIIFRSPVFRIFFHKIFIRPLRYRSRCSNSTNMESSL

Lab book: IC50 of O=C(O)Cc1cccc(Oc2ccc(Br)cc2C[S+]([O-])CCc2ccccc2)c1 (stereo not shown) [Compound 1-30] noted as > 1 µM

Lab book: IC50 of O=C(O)Cc1cccc(Oc2ccc(Br)cc2C[S+]([O-])c2ccccn2)c1 (stereo not shown) [Compound 1-31] noted as > 1 µM

Lab book: IC50 of Cc1nnc(SCc2cc(Br)ccc2Oc2cccc(CC(=O)O)c2)s1 [Compound 1-15] noted as > 1 µM

Okay, next one:
Lab book: IC50 of O=C(O)Cc1cccc(Oc2ccc(Br)cc2CS(=O)(=O)c2ccccc2)c1 [Compound 1-20] noted as > 1 µM

###

- experimental target: human DP2 receptor (Homo sapiens)
- Sequence (Q9Y5Y4 whole entry): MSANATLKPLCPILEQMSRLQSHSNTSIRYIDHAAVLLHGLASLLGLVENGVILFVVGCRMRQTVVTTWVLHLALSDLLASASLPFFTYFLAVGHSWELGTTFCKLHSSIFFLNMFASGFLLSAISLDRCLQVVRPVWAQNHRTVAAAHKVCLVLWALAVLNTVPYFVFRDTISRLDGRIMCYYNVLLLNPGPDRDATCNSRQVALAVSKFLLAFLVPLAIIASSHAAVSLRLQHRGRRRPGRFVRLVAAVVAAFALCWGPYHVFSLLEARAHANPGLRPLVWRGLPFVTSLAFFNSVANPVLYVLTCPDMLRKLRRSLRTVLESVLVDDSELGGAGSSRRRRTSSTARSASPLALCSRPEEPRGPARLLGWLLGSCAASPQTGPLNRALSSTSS
- method description: DP2/CRTH2 radioligand binding assay ([3H]PGD2)
- experimental conditions: membranes of HEK293 cells expressing recombinant human DP2, 1 nM [3H]PGD2; read-out: hDP2
pIC50: −log10 of the molar value.
measure: pIC50

Some entries whose results are on file:
Lab book: pIC50 of COc1ccc(CC(=O)O)cc1Oc1ccc(Cl)cc1CSCc1ccccc1 [Compound 1-54] noted as > 6.52

Lab book: pIC50 of Cc1nnc(S(=O)(=O)Cc2cc(Br)ccc2Oc2cccc(CC(=O)O)c2)s1 [Compound 1-26] noted as > 6.52

Look at each molecule and report its pIC50.
1. COc1ccc(CC(=O)O)cc1Oc1ccc(-c2cnn(C)c2)cc1CS(=O)(=O)C(C)C [Compound 1-64]
2. O=C(O)Cc1cccc(Oc2ccc(Br)cc2CS(=O)(=O)c2ccccn2)c1 [Compound 1-23]
3. O=C(O)Cc1cccc(Oc2ccc(Br)cc2CSc2ccc3ccccc3n2)c1 [Compound 1-16]
4. Cn1cc(-c2ccc(Oc3cccc(CC(=O)O)c3)c(CSc3ccccc3)c2)cn1 [Compound 1-57]
5. Cc1nnc([S+]([O-])Cc2cc(Br)ccc2Oc2cccc(CC(=O)O)c2)s1 (centres unmarked) [Compound 1-34]

6.00 to 6.52
6.00 to 6.52
6.00 to 6.52
6.00 to 6.52
> 6.52

###

- experimental target: human DP1 receptor (Homo sapiens, UniProt Q13258)
- Sequence (Q13258 1-359): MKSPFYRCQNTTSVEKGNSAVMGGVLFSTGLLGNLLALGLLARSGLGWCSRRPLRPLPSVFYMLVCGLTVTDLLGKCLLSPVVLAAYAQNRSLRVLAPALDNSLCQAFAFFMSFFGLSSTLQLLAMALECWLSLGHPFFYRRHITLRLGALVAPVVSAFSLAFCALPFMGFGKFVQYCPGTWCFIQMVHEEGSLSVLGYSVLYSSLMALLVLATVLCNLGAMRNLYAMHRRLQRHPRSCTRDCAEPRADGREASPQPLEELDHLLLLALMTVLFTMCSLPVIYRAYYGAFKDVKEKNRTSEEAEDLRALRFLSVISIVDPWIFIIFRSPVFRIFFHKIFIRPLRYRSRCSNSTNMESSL
pIC50: −log10 of the molar value.
For each entry below, report its pIC50 value.

Some entries whose results are on file:
Lab book: pIC50 of COc1ccc(CC(=O)O)cc1Oc1ccc(Cl)cc1CS(=O)(=O)Cc1ccccc1 [Compound 1-56] noted as < 6.00

Lab book: pIC50 of CN(C)CCSCc1cc(Br)ccc1Oc1cccc(CC(=O)O)c1 [Compound 1-18] noted as < 6.00

Lab book: pIC50 of O=C(O)Cc1cccc(Oc2ccc(Br)cc2CSc2nccs2)c1 [Compound 1-14] noted as 6.00 to 6.52

Look at each molecule and report its pIC50.
1. O=C(O)Cc1cccc(Oc2ccc(Br)cc2CSc2ccccc2)c1 [Compound 1-11]
2. O=C(O)Cc1cccc(Oc2ccc(Br)cc2C[S+]([O-])c2ccccc2)c1 (centres unmarked) [Compound 1-28]

1: 6.00 to 6.52; 2: < 6.00
